Cited source for all entries: patent US10934258B2

Would you mind telling me the reported solubility in water, [C] of each entry?
- experimentNotes: Solubility by preparing a super-saturated solution
- reportedConditions: in water
Provide the reading as a plain figure in mM.

Field request: solubility in water, [C] | item: C[N+](C)(C)CCC[n+]1ccc(-c2cc[n+](CCCS(=O)(=O)[O-])cc2)cc1.[Br-].[Br-] [(NPr)(SPr)V]
1600

So what's the measured solubility in water, [C] for this one? C[n+]1ccc(-c2cc[n+](C)cc2)cc1 [MV, methyl viologen, reference compound]
2500

What does the record list as solubility in water, [C] for C[n+]1ccc(-c2cc[n+](CCC[N+](C)(C)C)cc2)cc1.[Cl-].[Cl-].[Cl-] [(Me)(NPr)V] ?
1800

Entry O=S(=O)([O-])CCC[n+]1ccc(-c2cc[n+](CCCS(=O)(=O)[O-])cc2)cc1 [(SPr)2V] has what solubility in water, [C]?
2000

Reported solubility in water, [C], molecule C[N+](C)(C)CCC[n+]1ccc(-c2cc[n+](CCC[N+](C)(C)C)cc2)cc1.[Br-].[Br-].[Br-].[Br-] [(NPr)2V] : ____
1600
